Data provenance: patent US20240116985A1

Target: T1, B-cat-Halo (UniProt P35222 1-781, HaloTag NanoBRET 618 Ligand bound in the assay)
T1 construct: Transfected into HEK293 cells for the NanoBRET assay; also called beta-catenin HaloTag NanoBRET construct; not shown: HaloTag
T1 sequence (looked up): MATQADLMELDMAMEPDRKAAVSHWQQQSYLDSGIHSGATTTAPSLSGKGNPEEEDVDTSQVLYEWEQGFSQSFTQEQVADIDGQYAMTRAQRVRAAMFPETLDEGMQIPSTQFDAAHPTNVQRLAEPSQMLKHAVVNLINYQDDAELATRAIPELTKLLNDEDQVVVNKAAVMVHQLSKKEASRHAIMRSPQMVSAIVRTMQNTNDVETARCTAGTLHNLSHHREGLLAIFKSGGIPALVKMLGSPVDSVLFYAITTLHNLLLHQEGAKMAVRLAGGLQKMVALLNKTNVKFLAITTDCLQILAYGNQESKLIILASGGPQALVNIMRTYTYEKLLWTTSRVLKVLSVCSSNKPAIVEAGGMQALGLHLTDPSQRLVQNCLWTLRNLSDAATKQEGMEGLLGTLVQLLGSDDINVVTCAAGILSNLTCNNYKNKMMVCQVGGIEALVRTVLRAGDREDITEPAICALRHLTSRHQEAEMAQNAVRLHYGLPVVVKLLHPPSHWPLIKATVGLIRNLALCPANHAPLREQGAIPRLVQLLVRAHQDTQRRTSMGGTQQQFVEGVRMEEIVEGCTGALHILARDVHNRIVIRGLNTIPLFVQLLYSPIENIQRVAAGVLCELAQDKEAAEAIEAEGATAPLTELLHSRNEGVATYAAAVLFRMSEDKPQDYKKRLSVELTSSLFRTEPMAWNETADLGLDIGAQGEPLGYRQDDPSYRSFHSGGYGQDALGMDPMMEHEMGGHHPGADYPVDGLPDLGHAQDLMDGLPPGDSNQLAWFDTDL
Experiment: NanoBRET Abs IC50 in HEK293 cells; B-cat-Halo, competitor TCF4-Luc
Starred links: 1 amine or outer side, 2 acyl side, 3 side chain; linkers in the order of their positions; H or OH if unused. Positions of bridges follow the written chain, without caps; N, C: chain ends. Non-standard residues stand in square brackets, D forms with d. Primed or numbered codes have the meaning given here. B5(17) = 2,2-bis(4-pentenyl)glycine = 2-amino-2-(pent-4-en-1-yl)hept-6-enoic acid, stitching residue, C=CCCCC(CCCC=C)(N[*:1])C(=O)[*:2]; B5(4) = 2,2-bis(4-pentenyl)glycine = 2-amino-2-(pent-4-en-1-yl)hept-6-enoic acid (stitching residue), C=CCCCC(CCCC=C)(N[*:1])C(=O)[*:2]; Bta = N[C@@H](Cc1csc2ccccc12)C(=O)O; αAllylPro = C=CC[C@@]1(C(=O)O)CCCN1; S8 = C=CCCCCCC[C@](C)(N)C(=O)O
Listing of recorded IC50 by entry.
# unit: µM | format: bare number

Please review the entries below; each comes with its answer.
binder	observedProperty	dataValue
Ac-[αAllylPro]DL[B5(4)]DEAAFN[S8]F[Bta]S-NH2 (staple 1-4, 4-11; also: olefin E/Z not assigned, earlier-eluting staple isomer, Stapled peptide; same description as I-751, earlier eluting staple isomer composition; also called Ac-PL3-Asp-Leu-B5-Asp-Glu-Ala-Ala-Phe-Asn-S8-Phe-BztA-Ser-NH2) [I-750]	IC50	7.4
XDLXDEAAFNXFXT (not fully specified; N-terminal Ac; C-terminal NH2; PL3 at 1, B5 at 4, S8 at 11, BztA at 13; stapled PL3-B5 and B5-S8 by olefin metathesis, Stapled peptide; also called Ac-PL3-Asp-Leu-B5-Asp-Glu-Ala-Ala-Phe-Asn-S8-Phe-BztA-Thr-NH2) [I-749]	IC50	9
Ac-[αAllylPro]DL[B5(17)]DEAAFN[S8]F[Bta]Q[dA]-NH2 (staple 1-4, 4-11, also called Ac-PL3-Asp-Leu-B5-Asp-Glu-Ala-Ala-Phe-Asn-S8-Phe-BztA-Gln-dAla-NH2) [I-731]	IC50	11.6

Please examine the following record next.
Q: Look up IC50: XDLXDEAAFNXFXQA (not fully specified; N-terminal Ac; C-terminal NH2; PL3 at 1, B5 at 4, S8 at 11, BztA at 13; stapled PL3-B5 and B5-S8 by olefin metathesis, Stapled peptide; also called Ac-PL3-Asp-Leu-B5-Asp-Glu-Ala-Ala-Phe-Asn-S8-Phe-BztA-Gln-Ala-NH2) [I-730]
Result: 11.2
